- experiment_summary: Saturation solubility of Cilengitide solid forms in water and solvents
- Type: physicochemical
- settings: water; at 20° C. or 25° C., preferably at 20° C.
observed_property: solubility at 16 h

Input: Tell me the measured solubility at 16 h of CC(C)[C@H]1C(=O)N[C@@H](CCCNC(=N)N)C(=O)NCC(=O)N[C@@H](CC(=O)O)C(=O)N[C@H](Cc2ccccc2)C(=O)N1C [crystalline form A1, cyclo-(Arg-Gly-Asp-DPhe-NMeVal)] , please.
Output: ~7000 µg/mL

====

- experiment_summary: Pharmacokinetic study in monkeys
- settings: in vivo; Cynomolgus monkey, animal 583, dose 11.8 mg/kg, suspension Cilengitide 300 mg/mL + DMPG 2 mg/mL, 0.500 h; read-out: MSC1097999
observed_property: level at 0.5 h

Input: Quick one: level at 0.5 h of CC(C)[C@H]1C(=O)N[C@@H](CCCN=C(N)N)C(=O)NCC(=O)N[C@@H](CC(=O)O)C(=O)N[C@H](Cc2ccccc2)C(=O)N1C ?
Output: 967 ng/mL
